Target: T1, EsCas13d, nuclease-dead (Eubacterium siraeum, UniProt B0MS50, R295A;H300A;R849A;H854A)
T1 sequence: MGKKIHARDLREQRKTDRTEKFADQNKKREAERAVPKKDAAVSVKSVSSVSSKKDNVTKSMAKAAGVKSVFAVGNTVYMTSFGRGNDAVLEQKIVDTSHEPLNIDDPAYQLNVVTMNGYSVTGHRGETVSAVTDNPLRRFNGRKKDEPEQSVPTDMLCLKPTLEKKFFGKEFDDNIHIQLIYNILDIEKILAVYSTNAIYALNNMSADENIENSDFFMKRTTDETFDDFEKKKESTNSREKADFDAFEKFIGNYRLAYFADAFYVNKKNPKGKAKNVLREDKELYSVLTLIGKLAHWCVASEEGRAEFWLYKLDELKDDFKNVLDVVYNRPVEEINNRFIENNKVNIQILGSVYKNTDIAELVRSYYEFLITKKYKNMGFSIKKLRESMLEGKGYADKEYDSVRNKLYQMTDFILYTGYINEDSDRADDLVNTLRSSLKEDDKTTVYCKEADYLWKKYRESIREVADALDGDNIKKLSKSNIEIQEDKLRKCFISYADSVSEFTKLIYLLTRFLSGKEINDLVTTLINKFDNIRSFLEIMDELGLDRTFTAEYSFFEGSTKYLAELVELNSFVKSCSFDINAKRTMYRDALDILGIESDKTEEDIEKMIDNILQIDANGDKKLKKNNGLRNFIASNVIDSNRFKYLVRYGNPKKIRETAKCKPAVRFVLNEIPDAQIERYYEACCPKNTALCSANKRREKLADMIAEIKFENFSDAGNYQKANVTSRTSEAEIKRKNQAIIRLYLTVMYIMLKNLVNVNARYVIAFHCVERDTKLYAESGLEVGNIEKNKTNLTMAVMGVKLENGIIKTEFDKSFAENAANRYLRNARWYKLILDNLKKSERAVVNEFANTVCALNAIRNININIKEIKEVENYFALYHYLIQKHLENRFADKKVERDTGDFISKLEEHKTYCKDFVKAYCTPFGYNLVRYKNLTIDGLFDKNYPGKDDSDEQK
Assay: crRNA (strand 1, pre-loaded); Mg2+; 40 mM Tris-HCl pH 7.5, 150 mM NaCl, 6 mM MgCl2, 1 mM DTT, 0.1% Tween-20, 0.2 mg/ml BSA; 25 C; 10 min per concentration, then washed
Conditions: tags: His6-TwinStrep-SUMO cleaved; N-terminal SNAP kept (SNAP-Surface 488); label: 3' end held by stalled T7 RNA polymerase
Property Label: Kd (nM)

• target 1 insC 3' of 11,insG 3' of 11 (mixed) RNA 1: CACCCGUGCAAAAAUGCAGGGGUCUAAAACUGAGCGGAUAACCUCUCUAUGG RNA 2: GGGAAUGGAUCCACAUCUACGAAUUCGUACCAUAGAGAGGUCGUAUCCGCUCACCGAGAUCGGAAGAGCACACGU = 42
• target 1 G15A,G17U (mixed) RNA 1: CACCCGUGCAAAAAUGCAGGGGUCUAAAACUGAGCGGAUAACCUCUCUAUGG RNA 2: GGGAAUGGAUCCACAUCUACGAAUUCGUACCAUAUAAAGGUUAUCCGCUCACCGAGAUCGGAAGAGCACACGU = 73
• target 1 insA 3' of 13,insU 3' of 4 (mixed) RNA 1: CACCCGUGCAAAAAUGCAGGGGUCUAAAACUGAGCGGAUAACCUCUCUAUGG RNA 2: GGGAAUGGAUCCACAUCUACGAAUUCGUACCAUAGAGAGAGUUAUCCGCUUCACCGAGAUCGGAAGAGCACACGU = 3.45
• target 3 insG 3' of 8,insU 3' of 6 (mixed) RNA 1: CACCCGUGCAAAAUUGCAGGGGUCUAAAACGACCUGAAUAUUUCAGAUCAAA RNA 2: GGGAAUGGAUCCACAUCUACGAAUUCGUUUUUGAUCUGAAAUAUGUCUAGGUCUGCAGAUCGGAAGAGCACACGU = 28.3
